Provenance of the data: patent US11034672B1

# testedTarget: HER2 YVMA (Homo sapiens, UniProt P04626, INS775YVMA)
# Construct: expressed in transfected cells; host or cells: BaF3 (murine pro-B)
# Sequence (P04626 with tags, fused parts or gaps INS775YVMA): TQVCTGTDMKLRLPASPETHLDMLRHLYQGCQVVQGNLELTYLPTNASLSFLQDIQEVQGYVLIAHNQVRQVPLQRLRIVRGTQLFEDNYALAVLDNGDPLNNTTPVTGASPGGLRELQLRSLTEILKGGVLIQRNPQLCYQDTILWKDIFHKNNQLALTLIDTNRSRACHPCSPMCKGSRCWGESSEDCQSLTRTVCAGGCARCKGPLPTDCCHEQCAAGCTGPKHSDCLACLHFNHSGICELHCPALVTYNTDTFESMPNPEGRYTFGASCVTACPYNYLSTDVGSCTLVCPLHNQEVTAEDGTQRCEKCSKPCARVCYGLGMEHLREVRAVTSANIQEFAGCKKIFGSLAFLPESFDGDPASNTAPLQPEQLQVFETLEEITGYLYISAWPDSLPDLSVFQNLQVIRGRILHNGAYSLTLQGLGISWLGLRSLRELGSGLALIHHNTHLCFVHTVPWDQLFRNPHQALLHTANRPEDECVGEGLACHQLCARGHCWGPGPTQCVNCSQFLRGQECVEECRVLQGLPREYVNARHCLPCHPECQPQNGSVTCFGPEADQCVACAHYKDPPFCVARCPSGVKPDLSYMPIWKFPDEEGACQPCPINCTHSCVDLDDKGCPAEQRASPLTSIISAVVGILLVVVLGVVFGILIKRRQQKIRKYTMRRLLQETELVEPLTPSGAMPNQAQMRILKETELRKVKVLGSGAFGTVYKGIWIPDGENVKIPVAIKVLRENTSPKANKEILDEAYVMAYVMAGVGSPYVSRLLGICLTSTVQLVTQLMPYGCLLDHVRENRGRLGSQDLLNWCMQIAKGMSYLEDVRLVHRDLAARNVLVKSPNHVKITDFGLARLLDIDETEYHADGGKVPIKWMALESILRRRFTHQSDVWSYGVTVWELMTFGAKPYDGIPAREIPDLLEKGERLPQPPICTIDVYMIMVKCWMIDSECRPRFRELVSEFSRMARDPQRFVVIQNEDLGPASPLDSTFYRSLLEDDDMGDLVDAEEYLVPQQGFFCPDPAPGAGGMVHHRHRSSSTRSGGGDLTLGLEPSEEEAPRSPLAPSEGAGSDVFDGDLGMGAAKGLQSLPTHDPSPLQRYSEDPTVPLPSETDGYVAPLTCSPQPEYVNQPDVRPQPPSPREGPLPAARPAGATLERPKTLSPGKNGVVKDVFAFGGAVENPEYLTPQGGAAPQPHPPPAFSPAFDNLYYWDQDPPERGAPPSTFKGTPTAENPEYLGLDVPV
# assayName: Activity for inhibiting HER2 (Table B), HER2 YVMA
# Type: cell-based
# conditions: read-out: HER2 YVMA, potency code (IC50)
Entries and their measured IC50 follow.

Solved entries (count: 3):
INSERT INTO results (samplesmiles, quantityname, value) VALUES
  ('C=CC(=O)Nc1cc2c(Nc3ccc(OCc4ccccn4)c(Cl)c3)ncnc2cc1N1CC(N(C)C)C1', 'IC50', '> 1 µM'),
  ('C=CC(=O)Nc1cc2c(Nc3ccc(OCc4ccccn4)c(Cl)c3)ncnc2cc1C#CC12CCN(CC1)CC2', 'IC50', '0.05 to 0.1 µM'),
  ('C=CC(=O)Nc1cc2c(Nc3ccc(OCc4cccc(F)c4)c(Cl)c3)ncnc2cc1OCCCN1CC(OC)C1', 'IC50', '0.1 to 0.2 µM');

Now for the compound whose IC50 we want.
Lookup: IC50 / HER2 YVMA (Homo sapiens, UniProt P04626, INS775YVMA) / C=CC(=O)Nc1cc2c(Nc3ccc(OCc4cccc(F)c4)c(Cl)c3)ncnc2cc1OCCN1CC(OC)C1
Found: 0.1 to 0.2 µM
